Please provide measured % activity Competitive binding assay for the entries that follow.
# assayed_target: protein phosphatase 2A (Homo sapiens, UniProt P67775)
# Construct: purchased Upstate Biotechnology (Lake Placid, NY)
# Sequence (P67775 whole entry): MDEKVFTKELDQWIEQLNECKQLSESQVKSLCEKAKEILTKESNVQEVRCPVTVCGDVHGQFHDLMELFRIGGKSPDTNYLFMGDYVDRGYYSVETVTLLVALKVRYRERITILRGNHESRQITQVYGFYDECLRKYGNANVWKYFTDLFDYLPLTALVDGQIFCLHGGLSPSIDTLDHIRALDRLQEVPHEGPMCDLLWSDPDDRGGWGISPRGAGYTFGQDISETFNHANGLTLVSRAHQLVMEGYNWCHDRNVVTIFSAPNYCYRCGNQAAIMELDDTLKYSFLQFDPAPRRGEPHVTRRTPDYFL
# protocol_description: biochemical
# Assay type: binding
Report as a plain number; the unit % is understood.

For this molecule ( CC#N ), measured % activity Competitive binding assay is 90.4

For this molecule ( [Cl-].[Na+] ), measured % activity Competitive binding assay is 41.2

For this molecule ( C[C@H](CCC(=O)NCCC[N+](C)(C)CCCS(=O)(=O)[O-])[C@H]1CC[C@H]2[C@@H]3[C@H](O)C[C@@H]4C[C@H](O)CC[C@]4(C)[C@H]3C[C@H](O)[C@]12C ), measured % activity Competitive binding assay is 90.9

For this molecule ( C[S+](C)[O-] [DMSO, dimethyl sulfoxide] ), measured % activity Competitive binding assay is 72.8

---

Please provide measured % activity Protein phosphatase assay for the entries that follow.
# assayed_target: protein phosphatase 2A (Homo sapiens)
# Construct: purchased Upstate Biotechnology (Lake Placid, NY)
# protocol_description: biochemical
# Assay type: biochemical
Remember to quote the unit after the number.

For this compound ( CC#N ), measured % activity Protein phosphatase assay is 88.2 ± 2.7%

For this compound ( C[S+](C)[O-] [DMSO, dimethyl sulfoxide] ), measured % activity Protein phosphatase assay is 97.9 ± 3.3%

For this compound ( C[C@H](CCC(=O)NCCC[N+](C)(C)CCCS(=O)(=O)[O-])[C@H]1CC[C@H]2[C@@H]3[C@H](O)C[C@@H]4C[C@H](O)CC[C@]4(C)[C@H]3C[C@H](O)[C@]12C ), measured % activity Protein phosphatase assay is 138.0 ± 34.4%

For this compound ( [Cl-].[Na+] ), measured % activity Protein phosphatase assay is 44.4 ± 1.6%
